# system-name: VEGF receptor KDR (Homo sapiens, UniProt P35968)
# Sequence (P35968 806-1356): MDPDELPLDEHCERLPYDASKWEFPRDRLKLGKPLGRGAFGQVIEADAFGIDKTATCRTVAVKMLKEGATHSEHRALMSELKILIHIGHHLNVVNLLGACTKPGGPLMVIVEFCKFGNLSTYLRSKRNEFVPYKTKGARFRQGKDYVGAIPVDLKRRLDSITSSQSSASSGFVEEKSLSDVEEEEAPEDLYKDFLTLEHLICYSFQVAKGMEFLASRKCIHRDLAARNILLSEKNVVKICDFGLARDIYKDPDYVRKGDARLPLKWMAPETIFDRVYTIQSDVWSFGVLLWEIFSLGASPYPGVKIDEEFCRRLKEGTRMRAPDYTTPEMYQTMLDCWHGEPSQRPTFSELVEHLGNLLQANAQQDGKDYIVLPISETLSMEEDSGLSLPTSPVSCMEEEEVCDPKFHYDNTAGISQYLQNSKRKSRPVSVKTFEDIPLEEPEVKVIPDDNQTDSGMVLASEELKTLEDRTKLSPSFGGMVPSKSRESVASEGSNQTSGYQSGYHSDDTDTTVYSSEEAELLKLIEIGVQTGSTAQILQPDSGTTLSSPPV
# experimental-details: In vitro receptor tyrosine kinase assay (DELFIA), VEGF receptor KDR
# measurement-setup: ATP 0.6 uM; enzyme 5 nM; read-out: VEGF (enz.) (IC50)
Reported IC50 values for the following molecules.

[Q] For the molecule shown here, CN1CCN(C(=O)c2cc3ncnc(Oc4ccc(NC(=S)NC(=O)Cc5ccccc5)cc4F)c3s2)CC1 [Example 24] , give the reported IC50.
[A] 250 to 500 nM

Moving on to another molecule below.
[Q] Report IC50 for O=C(Cc1ccccc1)NC(=S)Nc1ccc(Oc2ccnc3cc(C(=O)N4CCOCC4)sc23)c(F)c1 [Example 3] please.
[A] 250 to 500 nM

###

# system-name: recombinant human c-Met/HGF receptor (Homo sapiens, UniProt P08581)
# Sequence (P08581 1078-1337): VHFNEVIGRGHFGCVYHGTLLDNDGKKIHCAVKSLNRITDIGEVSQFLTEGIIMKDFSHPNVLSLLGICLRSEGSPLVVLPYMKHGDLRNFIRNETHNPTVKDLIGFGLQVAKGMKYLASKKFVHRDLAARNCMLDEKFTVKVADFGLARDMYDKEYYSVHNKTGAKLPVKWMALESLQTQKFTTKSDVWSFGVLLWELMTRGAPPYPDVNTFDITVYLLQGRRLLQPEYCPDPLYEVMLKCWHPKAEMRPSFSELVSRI
# experimental-details: In vitro receptor tyrosine kinase assay (DELFIA), c-Met/HGF receptor
# measurement-setup: read-out: C-Met (enz.) (IC50); ATP 10 uM; enzyme 25 nM
Collected IC50 values appear next to each entry.

[Q] Which IC50 is reported for this molecule? `O=C(Cc1ccccc1)NC(=S)Nc1ccc(Oc2ccnc3cc(C(=O)N4CCOCC4)sc23)c(F)c1`
[A] 50 to 250 nM

More entries:
[Q] Which IC50 reading was recorded for the molecule `CN1CCN(C(=O)c2cc3ncnc(Oc4ccc(NC(=S)NC(=O)Cc5ccccc5)cc4F)c3s2)CC1` ?
[A] 50 to 250 nM
